// each record: one item and its Ki for All-trans-retinol dehydrogenase [NAD(+)] ADH1B (Homo sapiens, UniProt P00325)
Assay Endpoint: Ki (µM)

Look over these answered cases.
Molecule	Unit Of Measurement	Meas Value
O=CN(C1CCC1)C1CCC1	µM	4900
O=CNC1CCC1	µM	2.9
CCCCCCC(C)NC=O (centres undefined)	µM	1.7
CCCN(C=O)C1CCCCC1	µM	4000
O=CNC1CCCCC1 [CYCLOHEXYLFORMAMIDE]	µM	3.4
CCCNC=O	µM	5.5

(A) O=CN(C1CCCC1)C1CCCC1
(B) CN(C=O)C1CCCCC1
(C) O=CNCC1CCCCC1
Endpoint returns the given molecules ordered by ascending Ki. List the labels in the requested order.
C, B, A
(C: 1 µM, B: 920 µM, A: 1600 µM)

Entry source: ChEMBL document CHEMBL1131219
